Assay: photoluminescence quantum yield (fraction); solvent given as SMILES
Conditions: in ClCCl
Answer each item with its documented photoluminescence quantum yield.

Inquiry: So what does the record say about photoluminescence quantum yield for `COc1ccc(-c2c3ccccc3c(C#Cc3ccccc3)c3cc4ccccc4cc23)cc1` ?
Reply text: 0.6

Inquiry: For CCOC(=O)c1ccc(C2CC(c3cccc4ccccc34)=NN2c2ccc(C#N)cc2)cc1 (configuration not stated) , what is its reported photoluminescence quantum yield?
Reply text: 0.258

Inquiry: Endpoint output: photoluminescence quantum yield of `CCCCCCCCCCOc1ccc(C#Cc2ccc(C#Cc3ccc(OCCCCCCCCCC)c(OCCCCCCCCCC)c3)c3nc4c5ccccc5c5ccccc5c4nc23)cc1OCCCCCCCCCC` . Value?
Reply text: 0.22

Inquiry: Given `c1ccc(-n2nc(-c3ccc(-c4ccc5c(c4)C(c4ccccc4)(c4ccccc4)c4ccccc4-5)cc3)nc2-c2ccccn2)cc1` , state its recorded photoluminescence quantum yield.
Reply text: 0.158

Inquiry: What value of photoluminescence quantum yield has been recorded for this entry: `Nc1ccc2c(c1)C(=O)N(C13C[C@H]4C[C@@H](C1)C[C@@H](C3)C4)C2=O`
Reply text: 0.85

Inquiry: // photoluminescence quantum yield lookup, key: `Cc1cccc(C2=CC3=C(c4c(C)cc(C)cc4C)c4cc(-c5cccc(C)c5)c(-c5cccc(C)c5)n4[B-](F)(F)[N+]3=C2c2cccc(C)c2)c1`
Reply text: 0.3

Inquiry: What value of photoluminescence quantum yield has been recorded for this entry: `CC1=C2C=CC(C)=[N+]2[B-](F)(F)n2cccc21`
Reply text: 0.89

Inquiry: Please report the recorded photoluminescence quantum yield for `O=S1(=O)c2ccccc2C2(c3cc(-c4ccc(N(c5ccccc5)c5ccccc5)cc4)ccc3-c3ccc(-c4ccc(N(c5ccccc5)c5ccccc5)cc4)cc32)c2ccccc21` .
Reply text: 0.83

Inquiry: Would you mind telling me what photoluminescence quantum yield value was observed for `COc1ccc(-c2csc(/C(C#N)=C\Nc3ccc(C#N)cc3)n2)cc1` ?
Reply text: 0.001

Inquiry: Which measured photoluminescence quantum yield value corresponds to `CC(C)c1cccc(C(C)C)c1N1C(=O)c2ccc3cc4c(cc5ccc6c7c(ccc4c57)C(=O)N(c4c(C(C)C)cccc4C(C)C)C6=O)c4ccc(c2c34)C1=O` ?
Reply text: 0.53

Inquiry: # lookup: photoluminescence quantum yield of `F[B-]1(F)n2c(c3cccc4cccc2c43)=Nc2sc3ccccc3[n+]21`
Reply text: 0.85

Inquiry: Entry `COc1ccc2c3c(c4ccc(OC)cc4c2c1)=[N+]1C(=C(c2c(C)cc(C)cc2C)c2cc4c5ccc(OC)cc5c5cc(OC)ccc5c4n2[B-]1(F)F)C=3` : reported photoluminescence quantum yield = ?
Reply text: 0.53

---

Experiment: photoluminescence quantum yield (fraction); solvent given as SMILES
Settings: in CC#N
Field: label. Allowed values: T (photoluminescence quantum yield < 0.4) or F (photoluminescence quantum yield >= 0.4).

Inquiry: Just wondering, is photoluminescence quantum yield of `C(#Cc1ccc(-n2c3ccccc3c3ccccc32)cc1)c1ccc(-c2nc(-c3ccc(C#Cc4ccc(-n5c6ccccc6c6ccccc65)cc4)cc3)nc(-c3ccc(C#Cc4ccc(-n5c6ccccc6c6ccccc65)cc4)cc3)n2)cc1` below 0.4?
Reply text: T

Inquiry: Check if photoluminescence quantum yield falls below 0.4 for `O=c1c2cc(I)ccc2nc2n1[B-](F)(F)[n+]1ccccc1-2` .
Reply text: F

Inquiry: Lab log: compare recorded photoluminescence quantum yield with 0.4; is it strictly lower for `O=c1oc2ccccc2cc1C#Cc1ccccc1` ?
Reply text: F

Inquiry: Please determine if `C#CCn1c2ccccc2c2cc(/C=C/c3cc(C)c4n3[B-](F)(F)[N+]3=C(C)C=C(C)C3=C4c3ccc(I)cc3)ccc21` is below 0.4 in terms of photoluminescence quantum yield.
Reply text: F

Inquiry: Is photoluminescence quantum yield strictly under 0.4 for the entry `CCCSC1=[N+]2C(=C(c3ccccc3)c3ccc(SCCC)n3[B-]2(F)F)C=C1` ?
Reply text: F

Inquiry: For this compound, is photoluminescence quantum yield lower than 0.4? `COC(=O)C[C@H](Cc1c[nH]c2ccccc12)NC(=O)[C@H](CC(=O)N[C@@H](CC1=CCc2ccccc21)C(=O)OC)NC(=O)OC(C)(C)C`
Reply text: T

Inquiry: Check if photoluminescence quantum yield falls below 0.4 for COC(=O)C(Cc1ccc2oc(-c3ccc(N(C)C)cc3)nc2c1)NC(=O)OC(C)(C)C (centres undefined) .
Reply text: F

Inquiry: I wonder whether `O=S1(=O)c2ccccc2-c2cc(-c3c4ccccc4cc4ccccc34)ccc21` has photoluminescence quantum yield below 0.4. Can you tell?
Reply text: T

Inquiry: hey, is photoluminescence quantum yield for `CCCCCCCCCCCCc1ccc(-c2cc(C)[o+]c(C)c2)cc1` lower than 0.4 or not?
Reply text: T

Inquiry: Does the reported photoluminescence quantum yield of the following compound sit strictly below 0.4? `Cc1ccc(C2=C3C=CC(Cl)=[N+]3[B-](F)(F)n3c(Cl)ccc32)cc1`
Reply text: T

Inquiry: Criterion: photoluminescence quantum yield strictly below 0.4. Is it met by `c1ccc(-c2nc(-c3ccccc3)c(-c3ccccc3)[nH]2)cc1` ?
Reply text: T

Inquiry: Bench note: check whether `Cc1ccc(NC(=O)c2ccc(N(C)C)cc2)cc1` shows photoluminescence quantum yield below 0.4
Reply text: T

Inquiry: Here's an entry: `C(=C\c1c2ccccc2cc2ccccc12)/c1cnc2ccccc2c1` . Is its photoluminescence quantum yield below 0.4?
Reply text: F

Inquiry: Does the reported photoluminescence quantum yield of `COc1ccc2nc3c(nc2c1)c(-c1ccccc1)nn3C` stay below 0.4?
Reply text: T
